- studySystem: Pyruvate kinase (Leishmania mexicana)
- runDescription: qHTS Validation Assay for Inhibitors of Leishmania Mexicana Pyruvate Kinase (AID 945)
- appliedConditions: purified L. mexicana pyruvate kinase, enzyme activity, E451W mutant enzyme; series mostly up to 57.5 µM
The source made the active and inactive calls. The call rests on the fitted dose curve; in most records, active means well fitted inhibition curve with a large enough effect; inconclusive means small, poorly fitted or top-dose-only effect; inactive means no such curve, though single readings can be large or run the other way.
Possible outcomes: active, inactive

{"compound": "COc1ccc(Cc2nccc3cc(OC)c(OC)cc23)cc1OC", "labelClass": "inactive"}
{"compound": "CCN(CC)CCOC(=O)c1ccc(N)cc1", "labelClass": "inactive"}
{"compound": "O=c1cc(-c2ccc(O)cc2)oc2cc(O)cc(O)c12", "labelClass": "active"}
{"compound": "CCN(CC)C(=O)c1ccc(O)c(OC)c1", "labelClass": "inactive"}
{"compound": "CC(=O)N[C@@H](CS)C(=O)O", "labelClass": "inactive"}
{"compound": "CCCCC1C(=O)N(c2ccccc2)N(c2ccccc2)C1=O", "labelClass": "inactive"}
{"compound": "O=C1NCC2(CCN(CCc3ccccc3)CC2)O1", "labelClass": "inactive"}
{"compound": "CC1(C)CCC2=C(O1)c1ccccc1C(=O)C2=O", "labelClass": "inactive"}
{"compound": "CC(C)NCC(O)COc1cccc2[nH]ccc12 (stereo not drawn)", "labelClass": "inactive"}
{"compound": "CC/C(=C(\\c1ccccc1)c1ccc(OCCN(C)C)cc1)c1ccccc1", "labelClass": "inactive"}
{"compound": "Clc1ccc(Cn2c(CN3CCCC3)nc3ccccc32)cc1", "labelClass": "inactive"}
{"compound": "CCN(CC)CCNC(=O)c1ccc(N)cc1", "labelClass": "inactive"}
{"compound": "C[N+](C)(C)CC(=O)O", "labelClass": "inactive"}

###

- runDescription: Quantitative High-Throughput drug screen in 47 multiple myeloma cell lines against the NCATS MIPE library collection: KMS12PE_JCRB cell viability assay (AID 1918972); further: potency means the concentration at half of the fitted maximal effect; nearly all actives have a fitted effect of over 30% in size
- appliedConditions: KMS12PE myeloma viability, CellTiter-Glo ATP, 48 h; series mostly up to 45.8 µM
Results filed as inconclusive are left out. Active and inactive are the calls of the source. Calls follow the shape of the dose curve; as a rule, active = well fitted cell-killing curve with a large enough effect; inconclusive = small, poorly fitted or top-dose-only effect, or effect the other way; inactive = no such curve, though single readings can be large or run the other way.
A collection of compounds and their measured Potency
experimentalEndpoint: Potency

{"compound": "O=C1C(Cl)=C(NCCN2CCOCC2)C(=O)c2ncccc21", "experimentalEndpoint": "Potency", "result": "3.32 µM (active)"}
{"compound": "COc1cc2nc(-c3ccc(N4CCN(C)CC4)cc3)nc(NCCN3CCOCC3)c2cc1OC", "experimentalEndpoint": "Potency", "result": "0.209 µM (active)"}
{"compound": "Clc1ccc(C(c2ccc(Cl)cc2)n2cc[n+](CC(OCc3ccc(Cl)cc3Cl)c3ccc(Cl)cc3Cl)c2)cc1 (stereo not given)", "experimentalEndpoint": "Potency", "result": "7.43 µM (active)"}
{"compound": "COc1ccc(-c2oc3c(CC=C(C)C)c(OC4O[C@H](CO)[C@@H](O)[C@H](O)[C@@H]4O)cc(O)c3c(=O)c2OC2O[C@@H](C)[C@H](O)[C@@H](O)[C@@H]2O)cc1 (stereo not given in full)", "experimentalEndpoint": "Potency", "result": "8.33 µM (active)"}
{"compound": "Cc1ccc([C@@H]2O[C@H](CO)[C@@H](O)[C@H](O)[C@@H]2O)cc1Cc1ccc(-c2ccc(F)cc2)s1", "experimentalEndpoint": "Potency", "result": "20.9 µM (active)"}

###

- System: Tov-21-G
- runDescription: Primary qHTS to identify gynecologic anti-cancer compounds using libraries of approved drugs and bioactive compounds (AID 1345084); further: nearly all actives have a fitted effect of over 55% in size
- appliedConditions: Gynecologic cancer cell panel viability, ATPlite luminescence, 48 h; series mostly up to 57.5 µM
- Description: National Center for Advancing Translational Sciences [NCATS] Assay Overview: Chemotherapeutic drug responses vary from cancer to cancer and from patient to patient. […] ATPlite is a luminescence based assay reliant on the conversion of a luciferase substrate to light in the presence of ATP. As a cytotoxic compound will suppress growth and decrease the number of cells, the concentration of ATP will decrease, and less light signal will be detected in the well. […]
Results filed as inconclusive are left out. Activity calls are given as the source filed them. The call rests on the fitted dose curve; in most records, active means well fitted cell-killing curve with a large enough effect; inconclusive means small, poorly fitted or top-dose-only effect, or effect the other way; inactive means flat fitted curve, though single readings scatter.
Possible outcomes: active, inactive

{"molecule": "Clc1ccc(Cn2c(CN3CCCC3)nc3ccccc32)cc1", "labelClass": "inactive"}
{"molecule": "CC/C(=C(\\c1ccccc1)c1ccc(OCCN(C)C)cc1)c1ccccc1", "labelClass": "inactive"}
{"molecule": "CS(=O)c1ccc(-c2nc(-c3ccc(F)cc3)c(-c3ccncc3)[nH]2)cc1 (stereo not given)", "labelClass": "inactive"}
{"molecule": "O=C(Nc1ccccc1-c1cn2c(CN3CCNCC3)csc2n1)c1cnc2ccccc2n1", "labelClass": "inactive"}
{"molecule": "COc1ncc(-c2ccc3nccc(-c4ccnnc4)c3c2)cc1NS(=O)(=O)c1ccc(F)cc1F", "labelClass": "active"}

###

- runDescription: Quantitative High-Throughput drug screen in 47 multiple myeloma cell lines against the NCATS MIPE library collection: EJM_DSMZ cell viability assay (AID 1918926;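 further: 100% = DMSO-only wells and 0% = media-only wells without cells; nearly all actives have a fitted effect of over 30% in size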)
- appliedConditions: EJM myeloma cell viability, CellTiter-Glo ATP, 48 h; series mostly up to 45.8 µM
Results filed as inconclusive are left out. Active and inactive are the calls of the source. Calls come from the whole dose curve; as a rule, active = well fitted cell-killing curve with a large enough effect; inconclusive = small, poorly fitted or top-dose-only effect, or effect the other way; inactive = no such curve, though single readings can be large or run the other way.
experimentalEndpoint: outcome

{"compound": "COc1ccc(-c2coc3cc(O)ccc3c2=O)cc1", "result": "inactive"}
{"compound": "O=C(O)c1ccc(-c2c[nH]c3ncc(-c4ccccc4)cc23)cc1C1CCCC1", "result": "inactive"}
{"compound": "NC1CCC(Nc2nc(Nc3ccc(C(=O)N4CCCCC4)cc3)c3ncn(-c4cccc(F)c4)c3n2)CC1 (stereo not given)", "result": "inactive"}
{"compound": "O=c1ccn([C@@H]2O[C@H](CO)[C@H](O)[C@H]2O)c(=O)[nH]1", "result": "inactive"}
{"compound": "COc1ccc2cccc(CCNC(C)=O)c2c1", "result": "inactive"}

###

- runDescription: P-glycoprotein substrates identified in KB-8-5-11 adenocarcinoma cell line, qHTS therapeutic library screen (AID 1346987); further: nearly all actives have a fitted effect of over 65% in size
- appliedConditions: KB-8-5-11 (P-gp overexpressing) viability, CellTiter-Glo, 72 h; series mostly up to 44.5 µM
Records with an inconclusive call do not appear. Active and inactive are the calls of the source. Calls follow the shape of the dose curve; as a rule, active = well fitted inhibition curve with a large enough effect; inconclusive = small, poorly fitted or top-dose-only effect; inactive = flat fitted curve, though single readings scatter.
Possible outcomes: class 1 (active), class 0 (inactive)

{"compound": "CO[C@H]1C=CC=C(C)C(=O)NC2=CC(=O)C(NCCN(C)C)=C(C[C@@H](C)C[C@H](OC)[C@@H](O)[C@@H](C)C=C(C)[C@@H]1OC(N)=O)C2=O", "labelClass": "class 1"}
{"compound": "Clc1cc(Cl)cc(CNc2ncncc2-c2ccc3c(c2)OCO3)c1", "labelClass": "class 1"}
{"compound": "COC(=O)[C@@H]1[C@H]2C[C@H]3c4[nH]c5ccccc5c4CCN3C[C@@H]2CC[C@@H]1O", "labelClass": "class 0"}
{"compound": "O=C1C(Cl)=C(NCCN2CCOCC2)C(=O)c2ncccc21", "labelClass": "class 1"}
{"compound": "CC[C@H]1OC(=O)[C@H](C)[C@@H](O[C@H]2C[C@@](C)(OC)[C@@H](O)[C@H](C)O2)[C@H](C)[C@@H](O[C@@H]2O[C@H](C)C[C@H](N(C)C)[C@@H]2O)[C@](C)(O)C[C@@H](C)CN(C)[C@H](C)[C@@H](O)[C@]1(C)O", "labelClass": "class 0"}
{"compound": "CNC(=O)c1ccccc1Sc1ccc2c(C=Cc3ccccn3)n[nH]c2c1", "labelClass": "class 1"}
{"compound": "Cc1cnc(C(=O)O)c[n+]1[O-]", "labelClass": "class 0"}
{"compound": "O=c1c(O)c(-c2ccc(O)cc2)oc2cc(O)cc(O)c12", "labelClass": "class 0"}
{"compound": "CCOC(=O)O[C@]1(C(=O)OCCl)CC[C@@H]2[C@H]3CCC4=CC(=O)C=C[C@]4(C)[C@@H]3[C@@H](O)C[C@@]21C", "labelClass": "class 0"}
{"compound": "CC(C)(C)OC(=O)N[C@H]1CCCCCC=C[C@@H]2C[C@@]2(C(=O)NS(=O)(=O)C2CC2)NC(=O)[C@@H]2C[C@@H](OC(=O)N3Cc4cccc(F)c4C3)CN2C1=O", "labelClass": "class 0"}
{"compound": "O=C(NCc1ccncc1)C12C[C@H]3C[C@@H](C1)CC(c1ccc(Cl)cc1)(C3)C2", "labelClass": "class 0"}
{"compound": "COc1cccc([C@@H](C)NCCCc2ccccc2Cl)c1", "labelClass": "class 0"}
{"compound": "CCn1cc(C(=O)O)c(=O)c2ccc(C)nc21", "labelClass": "class 0"}
{"compound": "O=C(CCN1CCN(C(=O)OCc2cc(Cl)cc(Cl)c2)CC1)c1ccc2[nH]c(=O)oc2c1", "labelClass": "class 0"}
{"compound": "N#CC1(c2ccc(NC(=O)c3cccnc3NCc3ccncc3)cc2)CCCC1", "labelClass": "class 0"}
{"compound": "CN1[C@@H]2CCC[C@@H]1CC(NC(=O)c1nn(C)c3ccccc13)C2 (some centres undefined)", "labelClass": "class 0"}
{"compound": "COc1ccc(Cc2ccc(NC(N)=O)cc2)cc1-c1cccc(Cl)c1", "labelClass": "class 0"}
{"compound": "O=C1NC(=O)C(=Cc2ccc(-c3ccc(F)cc3)o2)S1", "labelClass": "class 0"}
{"compound": "Nc1ncnc2ccccc12", "labelClass": "class 0"}
